All figures here come from the supplement of paper PMC11451515.

tested on: NOMO1; assay: cell viability relative to DMSO control; higher = less cytotoxic; details: RPMI 5 mM glucose + 10% dialyzed FBS; 48 h; 46.1 µM
cell viability overview
measuredAttribute: cell viability (%)

>  <molecule>
COc1ccccc1[C@H](c1cccc2ccccc12)[C@@](C)(C#N)C(=O)N1CCC(c2cccc(C(F)(F)F)c2)CC1

>  <testedSystem>
NOMO1

>  <measuredAttribute>
cell viability

>  <observed>
53.1

$$$$
>  <molecule>
Cc1c(N)nc([C@H](CC(N)=O)NC[C@@H](N)C(N)=O)nc1C(=O)N[C@H](C(=O)N[C@@H](C)[C@H](O)[C@@H](C)C(=O)N[C@@H](C(=O)NCCc1nc(-c2nc(C(=O)NCCC[S+](C)C)cs2)cs1)[C@@H](C)O)C(O[C@H]1O[C@H](CO)[C@H](O)[C@@H](O)[C@H]1O[C@H]1O[C@H](CO)[C@@H](O)[C@H](OC(N)=O)[C@@H]1O)c1c[nH]cn1 (stereo partly drawn)

>  <testedSystem>
NOMO1

>  <measuredAttribute>
cell viability

>  <observed>
86.7

$$$$
>  <molecule>
CCNC(=O)CCC/C=C\C[C@@H]1[C@@H](/C=C/C(O)CCc2ccccc2)[C@@H](O)C[C@@H]1O (stereo partly drawn)

>  <testedSystem>
NOMO1

>  <measuredAttribute>
cell viability

>  <observed>
32.3

$$$$
>  <molecule>
O=C(c1cncc(Br)c1)N1CCC(N2CCCC2)CC1

>  <testedSystem>
NOMO1

>  <measuredAttribute>
cell viability

>  <observed>
95.9

$$$$
>  <molecule>
CC(C)(N)c1ccc(-c2nc3ccccc3nc2-c2ccccc2)cc1

>  <testedSystem>
NOMO1

>  <measuredAttribute>
cell viability

>  <observed>
8.7

$$$$
>  <molecule>
CCn1nnc2c(N3CCOCC3)nc(-c3ccc(NC(=O)Nc4ccc(C(=O)N5CCN(C)CC5)cc4)cc3)nc21

>  <testedSystem>
NOMO1

>  <measuredAttribute>
cell viability

>  <observed>
56

$$$$
>  <molecule>
CCNC(=O)Nc1ccc(Oc2ncnc(N)c2/C=N/OC)cc1Cl

>  <testedSystem>
NOMO1

>  <measuredAttribute>
cell viability

>  <observed>
125

$$$$
>  <molecule>
CCOC(=O)c1c(C)n(C)c2ccc(O)cc12

>  <testedSystem>
NOMO1

>  <measuredAttribute>
cell viability

>  <observed>
96.6

$$$$
